- Tested Target: MiRP2-Kv2.1 (Rattus norvegicus, UniProt P15387)
- Construct: expressed in transfected cells; host or cells: Xenopus oocytes (co-injected cRNA)
- Sequence (P15387 1-857): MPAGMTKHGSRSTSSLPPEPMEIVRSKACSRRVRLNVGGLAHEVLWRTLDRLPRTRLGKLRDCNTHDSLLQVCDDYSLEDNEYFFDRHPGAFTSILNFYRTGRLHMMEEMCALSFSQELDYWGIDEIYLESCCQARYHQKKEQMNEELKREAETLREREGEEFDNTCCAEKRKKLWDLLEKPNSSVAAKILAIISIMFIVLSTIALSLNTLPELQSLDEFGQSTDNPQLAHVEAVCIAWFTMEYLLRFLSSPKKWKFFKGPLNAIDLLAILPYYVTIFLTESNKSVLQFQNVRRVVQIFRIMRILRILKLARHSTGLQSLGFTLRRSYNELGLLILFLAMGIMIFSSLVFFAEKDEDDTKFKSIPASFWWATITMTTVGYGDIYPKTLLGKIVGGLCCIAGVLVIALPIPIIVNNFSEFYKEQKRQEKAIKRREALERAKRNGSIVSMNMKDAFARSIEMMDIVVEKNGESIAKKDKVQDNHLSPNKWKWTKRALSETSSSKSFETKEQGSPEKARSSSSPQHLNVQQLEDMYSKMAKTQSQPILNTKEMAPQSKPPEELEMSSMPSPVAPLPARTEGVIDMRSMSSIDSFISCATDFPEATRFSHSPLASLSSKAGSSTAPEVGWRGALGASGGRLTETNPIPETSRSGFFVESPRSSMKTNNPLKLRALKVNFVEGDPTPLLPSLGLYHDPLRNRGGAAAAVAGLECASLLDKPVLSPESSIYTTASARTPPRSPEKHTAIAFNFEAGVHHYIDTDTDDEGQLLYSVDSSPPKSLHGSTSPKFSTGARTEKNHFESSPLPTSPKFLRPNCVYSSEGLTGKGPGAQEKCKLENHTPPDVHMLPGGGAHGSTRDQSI
- Sequence (Q9Y6H6 1-103 partner): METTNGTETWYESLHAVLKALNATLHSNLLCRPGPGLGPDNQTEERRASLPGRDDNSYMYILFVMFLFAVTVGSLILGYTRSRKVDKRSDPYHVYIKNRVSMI
- Experimental Details: TEVC of Xenopus oocytes co-injected with Kv2.1 and MiRP2 cRNA
- Format: cell-based
Measure Name: IC50 (µM)
Just the number in µM, nothing appended.

Req: Report value: IC50, system: MiRP2-Kv2.1 (Rattus norvegicus, UniProt P15387), compound: CCCCCCCCCCCCCCCC[N+]12CCN(CC1)CC2 [TA279]
Resp: 1.3

----------
- Tested Target: Kv3.4 (UniProt Q63734)
- Construct: IC50; other: Kv3.4, logistic dose response fit; effect on Kv3.4 currents; other: 1 mM, bath applied; slope of dose response curve; other: Kv3.4
- Sequence (Q63734 1-625): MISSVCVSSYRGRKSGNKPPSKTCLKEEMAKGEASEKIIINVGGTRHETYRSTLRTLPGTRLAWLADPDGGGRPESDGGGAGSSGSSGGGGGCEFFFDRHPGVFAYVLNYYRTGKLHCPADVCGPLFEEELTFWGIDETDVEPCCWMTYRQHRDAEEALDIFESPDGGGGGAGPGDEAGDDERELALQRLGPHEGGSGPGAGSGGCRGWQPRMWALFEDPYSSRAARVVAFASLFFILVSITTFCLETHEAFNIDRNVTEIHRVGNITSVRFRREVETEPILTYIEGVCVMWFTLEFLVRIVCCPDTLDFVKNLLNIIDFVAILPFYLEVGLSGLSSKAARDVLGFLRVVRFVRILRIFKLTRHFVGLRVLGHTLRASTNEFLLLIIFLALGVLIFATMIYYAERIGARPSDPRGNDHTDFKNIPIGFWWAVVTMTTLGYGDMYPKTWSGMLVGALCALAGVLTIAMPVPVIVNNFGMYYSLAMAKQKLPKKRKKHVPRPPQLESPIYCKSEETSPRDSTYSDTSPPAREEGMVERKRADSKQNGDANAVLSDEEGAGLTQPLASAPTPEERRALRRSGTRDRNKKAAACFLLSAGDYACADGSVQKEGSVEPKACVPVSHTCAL
- Experimental Details: TEVC of X. laevis oocytes expressing Kv3.4
- Condition Context: Kv3.4, logistic dose response fit
Measure Name: IC50 (µM)
Just the number in µM, nothing appended.

Examples with their reported IC50 follow.
Req: Determine its reported IC50: CCCCCCCCCCCCCCCC[N+]12CCN(CC1)CC2 [TA279]
Resp: 0.6

Req: Determine its reported IC50: CCCCCCCCCCCC[N+]12CCN(CC1)CC2 [JE188]
Resp: 34.2

Shift focus to the following entry.
Req: Determine its reported IC50: c1cc(C[N+]23CCN(CC2)CC3)ccc1C[N+]12CCN(CC1)CC2 [JC638.2α]
Resp: 129

This collection of values is drawn from patent US8143254B2.
